- System: Mice
- procedure_details: Hot-plate test
- Format: in vivo
- experimental_context: Mus musculus, 1 h, oral, 60 min after administration, 55.5°C, read-out: Hot-plate M.E.D. (minimum effective dose)
Below, each entry is listed alongside its reported minimal effective dose.
Answer format: numeric, mg/kg implied, no suffix.

Solved cases below.
# compound, unit_label, experimental_value
rows = [
    ("CCCc1ccc(OCc2ccccc2C(=O)Nc2ccc3nc(C)cc(N)c3c2)cc1.Cl [Example 34]", "mg/kg", 3),
    ("Cc1ccc(OCc2ccccc2C(=O)Nc2ccc3nc(C)cc(N)c3c2)c(Cl)c1.Cl [Example 43]", "mg/kg", 1),
    ("Cc1cc(N)c2cc(NC(=O)c3ccccc3COc3ccc(Cl)cc3Cl)ccc2n1.Cl [Example 2]", "mg/kg", 1),
    ("CCc1cc(N)c2cc(NC(=O)c3ccccc3COc3ccc(Cl)cc3)ccc2n1.Cl [Example 49]", "mg/kg", 1),
    ("Cc1cc(N)c2cc(NC(=O)c3ccccc3COc3ccc(Cl)cc3)ccc2n1.Cl [Example 11]", "mg/kg", 3),
    ("CC(=O)c1ccc(OCc2ccccc2C(=O)Nc2ccc3nc(C)cc(N)c3c2)cc1.Cl [Example 12]", "mg/kg", 3),
    ("CCc1ccc(OCc2ccccc2C(=O)Nc2ccc3nc(C)cc(N)c3c2)cc1.Cl [Example 1]", "mg/kg", 1),
    ("Cc1cc(N)c2cc(NC(=O)c3ccccc3COc3cccc([N+](=O)[O-])c3)ccc2n1.Cl [Example 19]", "mg/kg", 3),
    ("Cc1cc(N)c2cc(NC(=O)c3ccccc3COc3ccc(Cl)c(Cl)c3)ccc2n1.Cl [Example 26]", "mg/kg", 1),
    ("Cc1cc(N)c2cc(NC(=O)c3ccccc3COc3ccc([N+](=O)[O-])cc3)ccc2n1 [Example 7]", "mg/kg", 3),
]

Next compound, please.
State minimal effective dose (Mice) of CCc1ccc(OCc2ccccc2C(=O)Nc2ccc3nc(C)cc(N)c3c2)c(Cl)c1.Cl [Example 89] . 1
